Origin of the recorded values: paper PMC4311240

ASSAYED_TARGET: Aβ42 (Homo sapiens)
Construct: Aβ42 peptide (0.25 mg) (Calbiochem, Merck) was dissolved in hexafluoro-2-propanol; purchased Calbiochem, Merck
Sequence (P05067 672-713 limits assumed): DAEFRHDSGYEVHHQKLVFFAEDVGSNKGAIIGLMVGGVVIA
PROTOCOL_DESCRIPTION: ThT fluorescence inhibition assay of Aβ42 fibrillization
Assay type: biochemical
CONDITIONS: Aβ42 20 μM, Aβ42:inhibitor 1:2 (40 μM), inhibitor added at 0 h, four days at 37°C, 10 mM PBS pH 7.4, n = 3; read-out: inhibition efficiency (reduction in the fluorescence intensity of ThT)
MEASURED_PARAMETER: inhibition at 40 µM (%)
Numbers only, in %.

[[record]]
compound = "CC(C)C[C@H](NC(=O)[C@@H](N)CCCCN)C(=O)N[C@H](C(=O)N[C@@H](Cc1ccccc1)C(=O)N[C@@H](Cc1ccccc1)C(N)=O)C(C)C [P1, reference compound]"
measured_parameter = "inhibition at 40 µM"
recorded_value = 20


Turning now to a further compound:
Which inhibition at 40 µM is listed for Cc1cn(CC(=O)N[C@@H](CCCCN)C(=O)N[C@@H](CC(C)C)C(=O)N[C@H](C(=O)N[C@@H](Cc2ccccc2)C(=O)N[C@@H](Cc2ccccc2)C(N)=O)C(C)C)c(=O)[nH]c1=O [P2] ?
55

---

ASSAYED_TARGET: Aβ42 fibrillar aggregates (Homo sapiens, UniProt P05067)
Construct: Aβ42 peptide (0.25 mg) (Calbiochem, Merck) was dissolved in hexafluoro-2-propanol; purchased Calbiochem, Merck
Sequence (P05067 672-713 limits assumed): as above
PROTOCOL_DESCRIPTION: ThT fluorescence reversal (dissolution) assay of preformed Aβ42 fibrillar aggregates
Type: biochemical
CONDITIONS: time-dependent assay, Aβ42 aggregates 20 μM, 1:2, 37°C, n = 3
Non-standard residues stand in square brackets, D forms with d. Residues, ends and D or L forms follow the SMILES beside them. *: point of attachment. Acetyl(thymin-1-yl) = Cc1cn(CC(=O)*)c(=O)[nH]c1=O; Sar = CNCC(=O)O
MEASURED_PARAMETER: dissolution efficiency, time-dependent reversal ThT assay (%)
Numbers only, in %.

[[record]]
compound = "Cc1cn(CC(=O)N[C@@H](CCCCN)C(=O)N(C)CC(=O)N[C@H](C(=O)N(C)CC(=O)N[C@@H](Cc2ccccc2)C(=O)N(C)CC(N)=O)C(C)C)c(=O)[nH]c1=O [P5] ({Acetyl(thymin-1-yl)}-K[Sar]V[Sar]F[Sar]-NH2)"
reading_unit = "%"
recorded_value = 75


Provide the reported dissolution efficiency, time-dependent reversal ThT assay of each entry below, same order.
1. Cc1cn(CC(=O)N(C)CC(=O)N[C@@H](CC(C)C)C(=O)N(C)CC(=O)N[C@@H](Cc2ccccc2)C(=O)N(C)CC(=O)N[C@@H](C)C(N)=O)c(=O)[nH]c1=O [P4] ({Acetyl(thymin-1-yl)}-[Sar]L[Sar]F[Sar]A-NH2)
2. Cc1cn(CC(=O)N[C@@H](CCCCN)C(=O)N[C@@H](CC(C)C)C(=O)N[C@H](C(=O)N[C@@H](Cc2ccccc2)C(=O)N[C@@H](Cc2ccccc2)C(N)=O)C(C)C)c(=O)[nH]c1=O [P2]
3. CC(C)C[C@H](NC(=O)[C@H](CCCCN)NC(=O)CC1C(=O)NC(=O)NC1=O)C(=O)N[C@H](C(=O)N[C@@H](Cc1ccccc1)C(=O)N[C@@H](Cc1ccccc1)C(N)=O)C(C)C [P3]

1: 68; 2: 35; 3: 25

---

Hi there, I'd appreciate the recorded half-life at 50 μM for every entry that follows.
PROTOCOL_DESCRIPTION: Serum stability assay
Format: in vitro ADME
CONDITIONS: human blood serum (centrifuged to remove lipid), 37°C, 24 h, RP-HPLC at 254 nm, n = 3

[[record]]
compound = "CC(C)C[C@H](NC(=O)[C@@H](N)CCCCN)C(=O)N[C@H](C(=O)N[C@@H](Cc1ccccc1)C(=O)N[C@@H](Cc1ccccc1)C(N)=O)C(C)C [P1, reference compound]"
measured_parameter = "half-life at 50 μM"
recorded_value = "~3 h"

[[record]]
compound = "Cc1cn(CC(=O)N[C@@H](CCCCN)C(=O)N[C@@H](CC(C)C)C(=O)N[C@H](C(=O)N[C@@H](Cc2ccccc2)C(=O)N[C@@H](Cc2ccccc2)C(N)=O)C(C)C)c(=O)[nH]c1=O [P2]"
measured_parameter = "half-life at 50 μM"
recorded_value = "~10 h"


Here is another compound to look at.
What does the data say about its half-life at 50 μM? Entry: CC(C)C[C@H](NC(=O)[C@H](CCCCN)NC(=O)CC1C(=O)NC(=O)NC1=O)C(=O)N[C@H](C(=O)N[C@@H](Cc1ccccc1)C(=O)N[C@@H](Cc1ccccc1)C(N)=O)C(C)C
~10 h

---

PROTOCOL_DESCRIPTION: Serum stability assay
Format: in vitro ADME
CONDITIONS: human blood serum (centrifuged to remove lipid), 37°C, 24 h, RP-HPLC at 254 nm, n = 3, read-out: peptide intact after 24 h in serum
Non-standard residues stand in square brackets, D forms with d. Residues, ends and D or L forms follow the SMILES beside them. *: point of attachment. Acetyl(thymin-1-yl) = Cc1cn(CC(=O)*)c(=O)[nH]c1=O; Sar = CNCC(=O)O
MEASURED_PARAMETER: remaining at 24 h, 50 μM

[[record]]
compound = "Cc1cn(CC(=O)N[C@@H](CCCCN)C(=O)N(C)CC(=O)N[C@H](C(=O)N(C)CC(=O)N[C@@H](Cc2ccccc2)C(=O)N(C)CC(N)=O)C(C)C)c(=O)[nH]c1=O [P5] ({Acetyl(thymin-1-yl)}-K[Sar]V[Sar]F[Sar]-NH2)"
measured_parameter = "remaining at 24 h, 50 μM"
recorded_value = "> 90%"


Here's the next entry for you.
Return reported remaining at 24 h, 50 μM; argument: Cc1cn(CC(=O)N(C)CC(=O)N[C@@H](CC(C)C)C(=O)N(C)CC(=O)N[C@@H](Cc2ccccc2)C(=O)N(C)CC(=O)N[C@@H](C)C(N)=O)c(=O)[nH]c1=O [P4] ({Acetyl(thymin-1-yl)}-[Sar]L[Sar]F[Sar]A-NH2)
> 90%

---

ASSAYED_TARGET: Aβ42 fibrillar aggregates (Homo sapiens)
Construct: Aβ42 peptide (0.25 mg) (Calbiochem, Merck) was dissolved in hexafluoro-2-propanol; purchased Calbiochem, Merck
PROTOCOL_DESCRIPTION: ThT fluorescence reversal (dissolution) assay of preformed Aβ42 fibrillar aggregates
Assay type: biochemical
CONDITIONS: Aβ42 fibrillar aggregates grown for 2 days, 20 μM, 1:2 stoichiometry, day 6, 37°C, n = 3
Method: ThT assay has been widely used to monitor the transformation of Aβ42 monomers to fibrillar aggregates. […] Once they had been incubated together, Aβ42/inhibitors were analyzed using ThT by measuring the fluorescence changes. […] Aβ42 peptide (0.25 mg) (Calbiochem, Merck) was dissolved in hexafluoro-2-propanol (HFIP, 0.2 mL) and incubated at room temperature for 1 h. […] The formation of Aβ42 fibrillar aggregates was confirmed by ThT fluorescence, CD measurements and electron microscopy. […]
Non-standard residues stand in square brackets, D forms with d. Residues, ends and D or L forms follow the SMILES beside them. *: point of attachment. Acetyl(thymin-1-yl) = Cc1cn(CC(=O)*)c(=O)[nH]c1=O; Sar = CNCC(=O)O
Field: dissolution efficiency, fibril reversal assay (ThT). Provide a value for each of the compounds that follow.
Answers are plain numbers, in %.

Guide cases for dissolution efficiency, fibril reversal assay (ThT), answers given:
[[record]]
compound = "Cc1cn(CC(=O)N(C)CC(=O)N[C@@H](CC(C)C)C(=O)N(C)CC(=O)N[C@@H](Cc2ccccc2)C(=O)N(C)CC(=O)N[C@@H](C)C(N)=O)c(=O)[nH]c1=O [P4] ({Acetyl(thymin-1-yl)}-[Sar]L[Sar]F[Sar]A-NH2)"
assayed_target = "Aβ42 fibrillar aggregates (Homo sapiens)"
recorded_value = 80

[[record]]
compound = "Cc1cn(CC(=O)N[C@@H](CCCCN)C(=O)N(C)CC(=O)N[C@H](C(=O)N(C)CC(=O)N[C@@H](Cc2ccccc2)C(=O)N(C)CC(N)=O)C(C)C)c(=O)[nH]c1=O [P5] ({Acetyl(thymin-1-yl)}-K[Sar]V[Sar]F[Sar]-NH2)"
assayed_target = "Aβ42 fibrillar aggregates (Homo sapiens)"
recorded_value = 80

[[record]]
compound = "Cc1cn(CC(=O)N[C@@H](CCCCN)C(=O)N[C@@H](CC(C)C)C(=O)N[C@H](C(=O)N[C@@H](Cc2ccccc2)C(=O)N[C@@H](Cc2ccccc2)C(N)=O)C(C)C)c(=O)[nH]c1=O [P2]"
assayed_target = "Aβ42 fibrillar aggregates (Homo sapiens)"
recorded_value = 45

[[record]]
compound = "CC(C)C[C@H](NC(=O)[C@H](CCCCN)NC(=O)CC1C(=O)NC(=O)NC1=O)C(=O)N[C@H](C(=O)N[C@@H](Cc1ccccc1)C(=O)N[C@@H](Cc1ccccc1)C(N)=O)C(C)C [P3]"
assayed_target = "Aβ42 fibrillar aggregates (Homo sapiens)"
recorded_value = 34


Read the next record carefully.
So what's the measured dissolution efficiency, fibril reversal assay (ThT) for this one? CC(C)C[C@H](NC(=O)[C@@H](N)CCCCN)C(=O)N[C@H](C(=O)N[C@@H](Cc1ccccc1)C(=O)N[C@@H](Cc1ccccc1)C(N)=O)C(C)C [P1, reference compound]
20
